Molecular target: MAPK12 (human) (UniProt P53778)
Sequence (P53778 whole entry, looked up): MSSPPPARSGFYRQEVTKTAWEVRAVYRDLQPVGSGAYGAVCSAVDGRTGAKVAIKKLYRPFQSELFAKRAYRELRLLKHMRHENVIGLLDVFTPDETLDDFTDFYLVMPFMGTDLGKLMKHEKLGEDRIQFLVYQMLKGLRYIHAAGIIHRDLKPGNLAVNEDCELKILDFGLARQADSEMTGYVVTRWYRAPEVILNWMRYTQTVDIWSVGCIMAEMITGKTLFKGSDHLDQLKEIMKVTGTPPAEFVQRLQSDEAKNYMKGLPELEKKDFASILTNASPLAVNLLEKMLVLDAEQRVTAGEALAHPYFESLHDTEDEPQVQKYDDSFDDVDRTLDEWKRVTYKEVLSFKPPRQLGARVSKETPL
Test: radiometric filter-binding kinase assay, Kinase HotSpot
Settings: compound 0.5 µM; ATP 10 µM
Measured property: residual activity (%)
Number in %, nothing else.

Examples with answers:
NC(=O)c1cccc(-c2cc(Nc3ccc(OC(F)(F)F)cc3)ncn2)c1: 111
COc1ccc(Cl)cc1NC(=O)Nc1cc(C)nc2ccccc12: 101

Next molecule, residual activity to be filled in.
For the molecule N#C/C(=C\c1ccc(O)c(O)c1)C(=O)NCc1ccccc1 , what residual activity is on record?
94.2

----------
Biological target: MAP2K1 (human) (UniProt Q02750)
Sequence (Q02750 whole entry, looked up): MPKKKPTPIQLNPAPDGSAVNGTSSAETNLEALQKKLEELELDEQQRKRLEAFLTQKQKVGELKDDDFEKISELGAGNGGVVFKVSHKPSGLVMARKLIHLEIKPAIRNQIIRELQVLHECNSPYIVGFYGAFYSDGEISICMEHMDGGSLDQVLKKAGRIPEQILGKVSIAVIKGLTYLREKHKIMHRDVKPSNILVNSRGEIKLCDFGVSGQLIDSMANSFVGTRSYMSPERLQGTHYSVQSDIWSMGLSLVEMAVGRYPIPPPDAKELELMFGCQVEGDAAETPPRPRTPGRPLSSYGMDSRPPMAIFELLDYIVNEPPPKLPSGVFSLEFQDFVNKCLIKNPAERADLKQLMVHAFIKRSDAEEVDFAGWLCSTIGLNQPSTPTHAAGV
Assay: radiometric filter-binding kinase assay, Kinase HotSpot
Conditions: compound 0.5 µM; ATP 10 µM
Label scheme for residual activity: lower than 90% is Condition not met, 90% and above is Condition met.

See these solved cases before continuing.
C[C@@H]1CCN(C(=O)CC#N)C[C@@H]1N(C)c1ncnc2[nH]ccc12: Condition met
N#C/C(=C\c1ccc(O)c(O)c1)C(=O)NCc1ccccc1: Condition met
NC(=O)c1cccc(-c2cc(Nc3ccc(OC(F)(F)F)cc3)ncn2)c1: Condition met
O=C1Nc2ccc(Br)cc2/C1=C\c1cc2c([nH]1)CCCC2: Condition not met
COc1ccc2c(c1)c(C1=C(c3c[nH]c4ccccc34)C(=O)NC1=O)cn2CCCN(C)C: Condition not met

Moving on to the next compound.
Determine whether measured residual activity meets or exceeds 90% for c1ccc2c(-c3ccncc3)c[nH]c2c1
Condition met
